System: purified X. dendrorhous enzyme (F-3)
Assay: Glycosyltransferase activity: incubating maltose (240 g/l) with the purified X. dendrorhous enzyme (F-3), HPLC analysis
Assay type: biochemical, Xanthophyllomyces dendrorhous
Conditions: reaction time 216 h; 240 g maltose/l, 0.2 M sodium acetate pH 5.4, 40° C., 150 rpm
Experimental: 0.7 μg of α-glucosidase from the pure solution of α-glucosidase corresponding to fraction 3 of TABLE 2 were added. […] Aliquots were extracted at different times and incubated for 5 minutes at 80° C. to inactivate the enzyme. They were diluted to 1:4 (v/v) with water, centrifuged for 5 minutes at 6000 rpm in an Eppendorf tube with a 0.45 μam filter and analyzed by HPLC liquid chromatography.
Each entry below carries its reported Composition of the reaction mixture.
Quick reminder: number only, in grams/liter, skip the unit.

OC[C@H]1O[C@H](OC[C@H]2O[C@H](O[C@H]3[C@H](O)[C@@H](O)[C@@H](O[C@H]4[C@H](O)[C@@H](O)[C@@H](O)O[C@@H]4CO)O[C@@H]3CO)[C@H](O)[C@@H](O)[C@@H]2O)[C@H](O)[C@@H](O)[C@@H]1O ... 14.5

Shift focus to the following entry.
Entry OC[C@H]1O[C@H](OC[C@H]2O[C@H](O[C@H]3[C@H](O)[C@@H](O)C(O)O[C@@H]3CO)[C@H](O)[C@@H](O)[C@@H]2O)[C@H](O)[C@@H](O)[C@@H]1O (some centres unmarked) : reported Composition of the reaction mixture = ?
18.9
